Listed here are variants together with their documented protein stability index.
B1: TRIM39 (parent)
chain: CKACITRWWEDLERDFPCPVCRKT

# Variants of: B1
# experimental-details: protein stability index of a GFP-peptide fusion (GPS, HEK-293T) (PSI 1-6); higher = more stable;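 note: lentivirally expressed fusions sorted by FACS into six bins by GFP to DsRed ratio, PSI derived from sequencing read proportions per bin multiplied by bin number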
# condition-notes: c terminus: a fixed tail appended
Simply state the number, no unit and no words.

Sample answers from the record:
query-sequence | protein stability index
YKACITRWWEDLERDFPCPVCRKT [C1Y] | 1.72
CKGCITRWWEDLERDFPCPVCRKT [A3G] | 4.09
CKACITRWWEDLERDFPCPVCCKT [R22C] | 3.74
CKACITRWWEDLERDFPCPVCRVT [K23V] | 3.42
CKACITRWWEDLERDKPCPVCRKT [F16K] | 4.48

Form field: reported protein stability index of CKACITRWWEMLERDFPCPVCRKT [D11M] 3.9

GET /values?readout=protein stability index&item= CKACVTRWWEDLERDFPCPVCRKT [I5V] 3.35

GET /values?readout=protein stability index&item= CKACITRWWEDLERDFTCPVCRKT [P17T] 3.97

Which protein stability index value is on record for CKACITRWWEDLERDFPCPVMRKT [C21M] ? 1.56

State the recorded protein stability index for this entry: CKACIMRWWEDLERDFPCPVCRKT [T6M] 3.27

Could you share which protein stability index value was measured for CKACITRWNEDLERDFPCPVCRKT [W9N] ? 4.52

Requested field: protein stability index. Item: CKACITSWWEDLERDFPCPVCRKT [R7S] 3.98
